System: S. maltophilia
Assay type: cell-based
Conditions: S. maltophilia SMA002
Value Type: MIC

- Polymer Sequence: "ILKKFPFFPFRRK [MBI 11A1CN]"
  Readout Value: ">128 µg/mL"
- Polymer Sequence: "ILKKNPNNPARRK [MBI 11CNX1]"
  Readout Value: ">64 µg/mL"
- Polymer Sequence: "ILKKNPNNPNRRK [MBI 11CNY1]"
  Readout Value: ">64 µg/mL"
- Polymer Sequence: "ILRAPWWPWRRK [MBI 11H04CN]"
  Readout Value: ">128 µg/mL"
- Polymer Sequence: "PRIWKPKWRLPKR [MBI 11J01CN]"
  Readout Value: ">128 µg/mL"
